Attribution: the EternaBench riboswitch data

- System: MS2 coat protein
- Method: apparent Kd, MS2 coat protein; higher = weaker binding; RNA-MaP array; FMN 200 µM where present
- Settings: designed as: OFF switch for flavin mononucleotide; no ligand
# apparent Kd per entry
API: value field is a number in nM; no unit string.

# Residue Codes, System Name, apparent Kd [nM]
records = [
    ("UUAAUUUGGUGAUAUUAUGACAUUAGAAGGCUGUACAUGUUGAUACAUGAGGAUCACCCAUGUAUAGAGGAUAUAGACAAUUUU", "MS2 coat protein", 48),
    ("UAUAUGUCAGGAUAUCGAUUGGAGCGGAAUUUAGCUUUGGUCGAGAAGGGACAUGAGGAUCACCCAUGUUCCUC", "MS2 coat protein", 30),
]

Reported apparent Kd, sequence UCAGGCUUCGAGAAGGACAUGAGGAUCACCCAUGUGCGUGUGAAGCAGCCGUGAGGCUGCAUCAUGUAGGAUAUCGGAGUCUGU : ____ 92.3

Bench note: what apparent Kd did CCGACCUUGGCAGGAUAUAGACUCGAAGUUGAUCCCGCCGGUGGAGACAUGAGGAUCACCCAUGUCUAGAAGGGCCAGUCGAAA show? 16.2

====

- Test system: MS2 coat protein
- Method: apparent Kd, MS2 coat protein; higher = weaker binding; RNA-MaP array
- Settings: designed as: ON switch for flavin mononucleotide; no ligand
We begin with a simple list: items and their reported apparent Kd.
Give the value in nM but do not write nM after it.

These solved cases illustrate the format of a correct answer.
# Residue Codes, apparent Kd / nM
data = [
    ("ACACAUGAGGAUCACCCAUGUCGACGUUAGGCUCGUCGCGGCAGAAGGUGUGGCAUGGACACCCACAAGGAUAUGCAUGGGACU", 174),
    ("AGACAUGAGGAUCACCCAUGUCUCGGGAUGCGUAGCUUGCACAGAAGGCAUGACCGCAACGGUGAUGAGGAUAUGUCGUACCAA", 25.9),
    ("GUUAUAAUUACCAAGGAUAUCACAAGGCUUACAUGAGGAUCACCCAUGUUAAUACUCACAGACCGUGAGAAGGUGGCAAGAUCGAU", 21.4),
    ("CGAUGGGUAACAGGAUAUGAAUGGAAACCUCCAGUGUUGAGCACUUACAUGAGGAUCACCCAUGUUCAGAAGGGUUUGUGAUUG", 38.9),
    ("AAGGGCGCAGUAGGAUAUCAAUGUUUGACGGCGUGAGAAGGACUGCCCUAUUUUCAGACAUGAGGAUCACCCAUGUGCGUAAGA", 9.4),
    ("AGUUGUGGAAAGAAGGCGUGACGAGGUAAAUAUCCAACAUGAGGAUCACCCAUGUUUCUUGCCUACGAGGAUAUUUGUGCUAUC", 14),
]

Let us move to another entry and its apparent Kd.
Requested read-out: apparent Kd. Entry: GUCGAUUUUAAAUUGACAUGAGGAUCACCCAUGUCUUUAAUCAGAAGGCGGACAACAUUAUGUGCCGAGGAUAUGAUUGGAUCC 14.2

====

- Tested on: MS2 coat protein
- Method: apparent Kd, MS2 coat protein; higher = weaker binding; RNA-MaP array; FMN 200 µM where present
- Settings: ligand present: flavin mononucleotide; designed as: OFF switch for flavin mononucleotide
Classify by apparent Kd. Ranges: bin 1 (below 0.05 µM), bin 2 (0.05 µM to below 0.1 µM), bin 3 (0.1 µM or more)

See these solved cases before continuing.
# Residue Codes, Label Value
data = [
    ("UUAUGAGAGCAGGAUAUCUUAUAUGUGUAUUAAAGAGAAGGGCUCACAUGAGGAUCACCCAUGUGGUCCUAGAU", "bin 3"),
    ("AAAACUCGAGGAUAUGCAAAAUGAUUGCGAAAGCAAUCAAAACAUGAGGAUCACCCAUGUAGAAGGCGAGAAAA", "bin 1"),
    ("AAAUAGAAUGAGGAUAUCGUACUGGAUAUAGUGCGAGAAGGCAUUACAUGAGGAUCACCCAUGUUUUGUUGGGA", "bin 2"),
    ("GGAUGACAAAGUCAUCCAAAUCGAACAUGAGGAUCACCCAUGUAGGAUAUGGUACUCAAAGAGUACCAGAAGGACAUGUGCUUU", "bin 3"),
    ("GUGGCUAGUACAGGAUAUUAGUGCGUGUAGUAUUGAGAAGGGUACAUGAGGAUCACCCAUGUGAUCAAUCACUGUUAAGGUCGC", "bin 3"),
]

Which category does the recorded apparent Kd put AUUGCUCGAGAGAAGGGAACAUGAGGAUCACCCAUGUUACCUCACCUGGUGACGGAACUCCAAGUUCAGGAUAUCUCGAACGAU in? bin 1

Sort GUGCUUGUCGGAGGAUAUGGUUACAUGAGGAUCACCCAUGUUAUGCUUGGUUACUUGUUUAGUUUCCAGAAGGUCGAUUGGUUG into one of the categories. bin 3

Place this sequence in its band: GAAGCUCUGCAGCGAUUAGCUACAUGAGGAUCACCCAUGUGGGAGGAUAUACGUCGCUCCGCGGAGUAGAAGGCUUACAUGCGG bin 1

Textbook exercise: identify the category of the sequence given here, CCGUUACAUGAGGAUCACCCAUGUGAGGAUAUCGAUGUGACUGGCAGCGUGCGGGACUCGAGAAGGCACUUGGC , according to its measured value. bin 2

Which class does GAUCAACAUGAGGAUCACCCAUGUGAGGAUAUGUAUCAUAGAUCUUCGGAUCUAUGAUACAGAAGGCAUGUAGG fall in? bin 3

# classify by apparent Kd band: AAAACAGUGUAGGAUAUGGCUGGGCUGAAAAUGCUAGAAGGACACACAUGAGGAUCACCCAUGUGACUUCGUGC bin 1

// return the class label for UAUAACCAAGGAUAUACAUGAGGAUCACCCAUGUAAUAUAGUAUAAUAUAUGUAAAAUGUAGAAGGUGGGAUGU bin 1

Into which bin does this sequence go? UUAUUAUAUGUAGGAUAUGCAUAUUAUUAUUAUGCAGAAGGACAUGAGGAUCACCCAUGUAUAUUAUUAUUAUAUAUUAUAUAU bin 2

Which class is correct for the following sequence? CUCAUGUAAGGAUAUCUACGCGCUAAGGUGCGUCUAUCACAAGAGAAGGUACAUGAGGAUCACCCAUGUAAAGA bin 3

Class label required: UUUGUUUUGCAAGGAUAUGUUUAAUUUUAGUUUCCUUACACAUGAGGAUCACCCAUGUUAUACUUACAGAAGGUGCGUAAUUUU bin 2

For this sequence, which bin applies? GGCUGACAUGUAGGAUAUCUGCACGUGUAGUGCAGAGAAGGACAUGAGGAUCACCCAUGUAUAGCGACUUCGGUCGCAACAGCC bin 3

Categorize the following entry: GUCAGCUCGUGAGGAUAUACAACACUGCUUCGGCAGUGUAUAAAGAUCACAUGAGGAUCACCCAUGUAGAAGGCACGAGCUGAU bin 3

Hello team, could you let me know which band the following sequence falls into: UUACUACAUGAGGAUCACCCAUGUCAGGAUAUUGGAUAUGCCUUGGAAUACGUGUUUACAAGAAGGGACUAUAU bin 1
